Parameter self-cleavage: see the listing below.
B1: CPEB3 Ribozyme (parent)
chain: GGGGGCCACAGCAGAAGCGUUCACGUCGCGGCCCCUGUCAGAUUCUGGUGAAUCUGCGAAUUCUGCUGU

Variants of: B1
Assay: self-cleavage, relative activity (ratio to wild type); higher = more cleavage; co-transcriptional
reported property: self-cleavage

> print(dat)
    variant.notation  assay.result
 1          G4U C57G         0.165
 2         A13U C32A         0.542
 3         C32A G47C         0.869
 4         G19C U21A         0.109
 5         C32A G41A         0.344
 6         U20G C22A         0.249
 7          C6A C24G        0.0842
 8         A16G A60U         0.207
 9         G17U U49G         0.455
10         G41C G68U         0.933
11         A23G U69A         0.974
12          C6U C32U         0.826
13          C6U A52C         0.956
14         G19U C45U         0.469
15         G17C U46A         0.122
16         U20C U49G         0.231
17         C12A U36C         0.441
18         C32U U43C         0.947
19         C24U G47U         0.909
20          G1C A13U         0.155
21         G19C U62G         0.162
22         G19U C32G         0.157
23         G14U G56C         0.292
24          G1C U38G         0.112
25         U46G U53A          1.01
26         U38G G58A         0.257
27          G4C A42C         0.237
28          G5A G65C         0.532
29          G1C C33G         0.118
30         U49A G65C         0.476
31         A16U U61G         0.902
32          G3C C35U        0.0352
33         A13U G48C         0.872
34          G1C G30C         0.174
35          G2U U53G        0.0896
36         C12U U21A         0.947
37         G14U U61C         0.367
38         C39G U55A         0.866
39          A8G G58C         0.843
40         C12U C22G         0.248
41         G25U C34U         0.151
42         G14U C34A         0.526
43         U36G G58A          0.24
44         U20C G58A         0.161
45          G5A G58U         0.906
46         A16G G41U         0.472
